- PROTOCOL_NOTES: yeast display, Sf9 membrane polyspecificity reagent, FACS + sequencing; frameworks hold sequencing errors
VALUE_KIND: polyreactivity (PSR sort gate)

Below, 4 sequences whose answers are already recorded.
QVQLQESGGGLVQAGGSLRLSCAASGSISGPHVMGWSRQAPGKEREFVAAINVGANTYYADNVKGRFTISRDNAKNTVYLRMNSLKPEDTAVYYCAAVYYGDIGHEYWGQGTQVTVSC
low polyreactivity
QVQLVESGGGLGQAGGSLRLSCAASGITFVVYAMGWYRQAPGKERELVATISSGGSTNYADSVKGRFTISRDNAKNTVYLQMNSLKPEDTAVYYCNRVSVYRSSHLLWGGYWGQGTQVTVSS
low polyreactivity
QVQLVESGGGLVQAGGSLRLSCAASGSTSYDYAMGWYRQAPGKERELVAAISRRGGSTYYADSVKGRFTISRDNAKNTVYLQMNSLKPEDTAVYYCAARSYSYLGWFSYDYWGQGTQVTVSS
low polyreactivity
QVQLVESGGALVQAGGSLRLSCAASGIIFGGYALGWYRQEPGKERELVAAISCGGSTNYADSVKGRFTISRDNAKNTVYLQMNSLKPEDTSVYYCAADSASSYSYNYWGQGSQVTVSS
low polyreactivity

Batch of 8 sequences: report polyreactivity (PSR sort gate) for each.
1. QVQLVESGGGLVQAGGSLRLSCAASGFIFYDYDMGWYRPAPGKERELVAAITYSGGSTYYADSVKGRFTISRDNAKNTVYLQMNSLKPEDTAVYYCAAVKSRYAEAVDYYYWGQGTQVTVSS
2. QVQLVESGGGLVQAGGSLRLSCAASGSTFYQYAMGWYRQAPGKERELVAAITGSGTRTYYADSVKGRFTISRDNAKNTVYLQMNSLKPEDTAVYYCAAQKYYQGYNYWGQGTQVTVSS
3. QVQLVESGGGLVQAGGSLRLSCAASGFTFGSNAMGWYRQAPGKERELVAAINYSGVRTYYADSVKGRFTISRDNAKNTVYLQMNSLKPEDTAVSYCAKKRSKPISFDYWGQGTQVTVSS
4. QVQLVESGGGLVQAGGSLRLSCAACGLTYNANAMGWYRQAPGKERELVAAIDWIGGSTYYADSVKGRFTISRDNAKNTVYLQMNSLKPEDTAVYYCASRSKRRNYDYWGQGTQVTVSS
5. QGQPVESGGGLVQAGGSLRLSCAASGLIFRWYAMGWNRQAPVQEREVVAAISWSGASTYYADSVKGRFTISRDTPKNTVYLQMNSLKPDDTAVYYCAADYGYYGAGSYFDRGDYWGQGTQVTVSS
6. QVLLVESGGGLVQAGGSLRLSCASSGNTFYVNVMGWYRQAPGKEREFVAAISTRGVSTSYADSVKGRYTISRDNAKNTVYLDMNTLKPEDTAVYYCAASFRRPQPKGTTYGYWGQGTQVTVSS
7. QVQHVESGGVIVQAGGSHRLSCAASGHIFFYYTMGWYRQAPGKERELVAGITIGGSTNYADSVKGRFTISRDTAKNTVYLQMNSLKPEDTAVYYCNVVKYVYIYSYWEYYYWGQGTQVTVSS
8. QVQLVESGGGLVQAGGSLRLSCAASGSIFGYYAMGWYRQAPGKEREFVAAIRSSGGSTYYADSVKGRFTISRDNAKNTVYLQMNSLKPEDTAVYYCAAGGYPTFFKYGYWGQGTQVTVSS

low polyreactivity
high polyreactivity
high polyreactivity
high polyreactivity
high polyreactivity
high polyreactivity
low polyreactivity
high polyreactivity

Quick check: polyreactivity (PSR sort gate) of QVQLVESGGGLVQAGGSLRLSCAASGRTFWRNAMGWYRQAPGKERELVAAISSSGDRTYYADSVKGRFTISRDNAKNTVYLQMNSLKPEDTAVYYCAARTFWGAYDYWGQGTQVTVSS ?
high polyreactivity

----------
- PROTOCOL_NOTES: yeast display, Sf9 membrane polyspecificity reagent, FACS + sequencing; frameworks hold sequencing errors
VALUE_KIND: polyreactivity (PSR sort gate)

Below, 4 sequences whose answers are already recorded.
QDHLVESGGGLVQAGGSLRLSCAASGRIFGGYVMGRYRQAPGTERELVAAINGGGGSTYYADSVKGRFTISRDNAKNTVYLQMNSLKPEDTAVYYCMLVKRSQRKSTIDFDYWGQGTQVTVSS
high polyreactivity
QVQLVESGGGLVQAGGSLRLSCAASGLTFVEYAMAWYRQAPGKERELVAAITSTDGTNYADSVKGRFTISRDNAKNTVYIQMNSLKPADTAVYYCFTLAQDFYFWYYYWGQGTQVTVSS
high polyreactivity
QVQLVESGGGLVQAGGSLRLSCAASGLIFRGNDMGWYRQAPGKERELVAGINSSGSTNYADSVKGRFTISRDNAKNTVYLHMNSLKPEDTAVYYCAARAIVSFDYCGQGTQVTVSS
low polyreactivity
QVQLVESGGGLVQAGGSLRLSCAASGSIFPYNAMGWYRQAPGKERELVAAISKRGGSTYYADSVKGRFTISRDNAKNTVYLQMNSLKPEDTAVYYCAARYPPYRSWYSYDYWGQGTQVTVSS
low polyreactivity

Continue with the next sequence.
Quick check: polyreactivity (PSR sort gate) of QVQLVESGGGLVQAGGSLRLSCAASGGTFGQYAMGWYRQAPGKERELVAAITSSGGRTYYADSVKGRFTISRDNAKNTVYLQMNSLKPEDTAVYYCAADVQSRYVGEGDYWGQGTQVTVSS ?
high polyreactivity

----------
- PROTOCOL_NOTES: yeast display, Sf9 membrane polyspecificity reagent, FACS + sequencing; frameworks hold sequencing errors
VALUE_KIND: polyreactivity (PSR sort gate)

QVQLVESGGGLVQAGGSLRLSCAASGSIFRCNAMGWYRQAPGKERELVAVINSSGGSTYYADSVKGRFTISRDNAKNTVYLQMNSLKPEDTAVYYCAADLFLDGSSQYDPNWWPDGWNTYRLLGGYWGQGTQVTVSS
low polyreactivity
QVQLVESGGGLVQAGGSLRLSCDASGRIFDYYAMGWYRQAPGKEMELVAAISTSGGSTYYADSVKGRFTISRDNAKNTVYLQMTRLKPEDTAVYYWAKDITDTYPGLDYDYWGQGTQVTVSS
low polyreactivity
QVQLVESGGGLVQAGGSLRLTCAASGFIFRYYAMGWYRQAHGKEMELVAAIDYSGGSTNYADSVKGRFTISRDNSKNTVYLQMNSLKPEDTAVYYCKAEYTWHRGYDYWGLGTQVTVSS
low polyreactivity

----------
- PROTOCOL_NOTES: yeast display, Sf9 membrane polyspecificity reagent, FACS + sequencing; frameworks hold sequencing errors
VALUE_KIND: polyreactivity (PSR sort gate)

QVQLVESGGGLVQAGCSLRLSCAASGSIFPANAMGWYRQAPGKEWEFVAAINWSTGTTYNADSVKGRFTISRDNAKNTVYLQMTSLKPEDTAFYHCAAGDWYSGNTTHFYYWGQGTQVTVSS
low polyreactivity
QVQLVESVGGLVQAGGSLRLSCDASGSTFTSYTMGWYRPAPGKERELVAAISRSDGDRTYYADSVKGRFTISRDNAKNTVYLQMNSLKPEDTAVYYCAAEVTPRIVRYYYWGQGTQVTVSS
high polyreactivity
QVQLVESGGGLVQAGGSLRLSCAASGRIFKYYVMGWYRQAPGKERELVATISRRDASTYYADSVKGRFTISRDNAKNTVYLQMNSLKPEDTAVYYCNADRARSERIKYDYWGQGTQGTVSS
high polyreactivity
QVQLVESGGGLVQAGGSLRLSCAASGFTFGSNAMGWYRQAPGKEREFVAAISGSGDRTYYADSVKGRFTISRDNAKNTVYLQMNSLKPEDTAVYYCATSVRQNYFYSYDDWGQGTQVTVSS
high polyreactivity
QVQLVESGGGLVQAGGSLRLSCAASGIFSYYAMGWYRQAPGKERELVAAISSSGGSTYYADSVKGRFTISRDNAKNTVYLQMNSLKPEDTAVYYCNVRNYYNDYYYWGQGTQVTVSS
high polyreactivity
QVQLVESGGGLVQAGGSLRLSCADSGITLQSYAMGWYRQAPGKERELVAAITSGSSTHYADSVKGRFTISRYNAKYTVYLQMYSLKPEDTAVYYCAADRVYFGDLFVVYYFIQYDFWGQGTQVTVSS
low polyreactivity
QVQLVESGRGLVQAGGSLRLSCAASGRTFYSNTMGWSRQAPGKERELVAVISNGGSTYYADSVKGRFTISRDNAKYTVYLQMNSLKPEETAVYYCAARSRDRYRGNYWGQGTQVTVSS
high polyreactivity
QVQLVETGGGLVQAGGSLRLSFAASGIISYHNAMGWYRQAPGKERELLAGITYSGGSTYYEDSVKGRFTISRVNAKNTVYLQMNSMKPEDTAVYFCAARVVYWTWSCLSKMDYWGQGTQVTVSS
high polyreactivity

Batch of 3 sequences: report polyreactivity (PSR sort gate) for each.
1. QVQLVESGGGLVQAGGSLRLSCAASGFTFGYYAMGWYRQAPGKEREFVARISWSGDSTYYADSVKGRFTISRDNAKNTVYLQMNSLKPEDTSVYYCAAVVQTSWGKWNDYWGPGTQVTVSS
2. QVQLVESGVGLVQAGGSLRLSCAASGSIFGVNMGWYRQAPGKERELVASITSGGSTNYADSVKGRFTISRDNAKNTVYLQMNSLKPEDTAVYYCATDRYVWGQGTQVTVSS
3. QVQLVESGGGLVQAGGSLRLSCAASGLISGDYAMGWYRQAPGKERELVARITSGDSTNYADSVKGRFTISRDNAKNTVYLQMNSLKPEDTAVYYCAAKRYVFQNDYWGQGTQVTVSS

high polyreactivity
low polyreactivity
low polyreactivity
